molecular target: JAK3 (Homo sapiens, UniProt P52333); construct: purchased Carna Biosciences, Inc; assay: JAK tyrosine kinase inhibitory activity in the presence of 1 mM ATP (ELISA), JAK3; format: biochemical
Sequence (P52333 whole entry): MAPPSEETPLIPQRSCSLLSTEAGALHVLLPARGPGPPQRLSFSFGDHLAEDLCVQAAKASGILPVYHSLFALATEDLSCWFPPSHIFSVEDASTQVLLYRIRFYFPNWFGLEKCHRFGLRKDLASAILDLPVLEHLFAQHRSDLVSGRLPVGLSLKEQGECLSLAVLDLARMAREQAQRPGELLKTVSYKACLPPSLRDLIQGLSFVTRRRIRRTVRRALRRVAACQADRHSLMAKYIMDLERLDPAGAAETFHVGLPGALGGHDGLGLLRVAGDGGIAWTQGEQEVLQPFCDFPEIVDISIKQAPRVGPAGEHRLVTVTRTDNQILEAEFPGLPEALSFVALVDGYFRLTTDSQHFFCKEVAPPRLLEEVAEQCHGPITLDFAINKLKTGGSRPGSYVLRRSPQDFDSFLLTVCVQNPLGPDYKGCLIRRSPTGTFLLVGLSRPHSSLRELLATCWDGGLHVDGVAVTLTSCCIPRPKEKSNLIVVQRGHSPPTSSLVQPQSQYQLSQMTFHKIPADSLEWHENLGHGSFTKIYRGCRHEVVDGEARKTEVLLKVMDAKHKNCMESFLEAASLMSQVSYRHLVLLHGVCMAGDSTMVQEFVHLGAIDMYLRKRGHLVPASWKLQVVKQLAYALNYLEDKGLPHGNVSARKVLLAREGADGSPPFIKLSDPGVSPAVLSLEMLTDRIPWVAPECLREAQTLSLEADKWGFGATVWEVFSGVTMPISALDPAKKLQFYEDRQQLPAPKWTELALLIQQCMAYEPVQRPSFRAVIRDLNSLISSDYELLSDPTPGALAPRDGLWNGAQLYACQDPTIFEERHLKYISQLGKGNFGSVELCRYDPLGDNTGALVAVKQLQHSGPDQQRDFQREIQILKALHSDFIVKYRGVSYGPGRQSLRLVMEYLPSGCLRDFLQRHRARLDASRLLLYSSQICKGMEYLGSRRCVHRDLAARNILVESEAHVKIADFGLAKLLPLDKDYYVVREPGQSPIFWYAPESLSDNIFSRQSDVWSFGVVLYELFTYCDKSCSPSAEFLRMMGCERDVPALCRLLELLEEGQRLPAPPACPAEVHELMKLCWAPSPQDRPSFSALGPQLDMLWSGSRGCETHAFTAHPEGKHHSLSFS
Counter-ions that a name gives are not always drawn.
The reader will find reported log10 IC50 values listed item by item below.
measured quantity: log10 IC50 (log10 of the value in nM)

COCC(=O)NC1CCN(C(=O)c2cc(N[C@H](C)C(C)(C)C)nc(-c3cnn4ccsc34)n2)CC1 [Example 93] : 3.00
C[C@H](Nc1cc(C(=O)N2CCC(NC(=O)C3CC3)CC2)nc(-c2cnn3ccsc23)n1)C(C)(C)C [Example 3] : 3.51
C[C@H](Nc1cc(C(=O)N2CCC(NC(=O)C3CCCCC3)CC2)nc(-c2cnn3ccsc23)n1)C1CC1 [Example 167] : 3.04
CCCCC(=O)NC1CCN(C(=O)c2cc(N[C@@H](C)C3CC3)nc(-c3cnn4ccsc34)n2)CC1 [Example 190] : 3.00
COC(=O)NC1CCN(C(=O)c2cc(NC(C)(C)C)nc(-c3cnn4ccsc34)n2)CC1 [Example 59] : 3.75
COCCOC(=O)NC1CCN(C(=O)c2cc(NC(C)(C)C)nc(-c3cnn4ccsc34)n2)CC1 [Example 101] : 3.49
CC(C)(C)Nc1cc(C(=O)N2CCC(NC(=O)OC3CC3)CC2)nc(-c2cnn3ccsc23)n1 [Example 135] : 3.57
CO[C@H]1CCC[C@@H]1Nc1cc(C(=O)N2CCC(NC(=O)C3CC3)CC2)nc(-c2cnn3ccsc23)n1 [Example 19] : 3.81
Cc1ccccc1C(=O)NC1CCN(C(=O)c2cc(N[C@@H](C)C3CC3)nc(-c3cnn4ccsc34)n2)CC1 [Example 184] : 2.67
COC(=O)NC1CCN(C(=O)c2cc(N[C@H]3CC[C@H](O)CC3)nc(-c3cnn4ccsc34)n2)CC1 [Example 178] : 3.98
COC(=O)NC1CCN(C(=O)c2cc(N[C@@H](C)C(C)C)nc(-c3cnn4ccsc34)n2)CC1 [Example 25, hydrochloride] : 3.30
C[C@@H](Nc1cc(C(=O)N2CCC(NC(=O)c3ccc(F)cc3)CC2)nc(-c2cnn3ccsc23)n1)C(C)(C)C [Example 197] : 3.58
C[C@H](Nc1cc(C(=O)N2CCC(NC(=O)OCC(F)F)CC2)nc(-c2cnn3ccsc23)n1)C(C)(C)C [Example 99] : 3.41
CCC(CC)Nc1cc(C(=O)N2CCC(NC(=O)C3CC3)CC2)nc(-c2cnn3ccsc23)n1 [Example 124] : 3.34
CC(C)OC(=O)NC1CCN(C(=O)c2cc(NC3(C)COC3)nc(-c3cnn4ccsc34)n2)CC1 [Example 139] : 3.32

The measurements presented in this section are drawn from patent US9999622B2.
